- test: Phase 1 Part 2 plasma pharmacokinetics (mild asthma)
- Type: in vivo, human
- conditionInfo: human, plasma, inhaled, 0.6 mg, 0.6 mg QD, Day 10, read-out: AUC0-∞ Geometric mean

{"smilesData": "Cn1c(=O)n([C@H]2CCCN(C(=O)CC#N)C2)c2nc(-c3cnn4ccccc34)ccc21", "AUC(0-inf) [µg·h/mL]": 0.0243}

====

- test: 13-week inhalation toxicology study, NHP model
- Assay type: in vivo
- conditionInfo: monkey, in vivo, inhaled or intranasal, 8 mg/kg/day, NHP, inhaled 8.0 mg/kg/day, Week 13; read-out: AUC0-24
propertyMeasured: AUC(0-t) (ng·h/mL)

{"smilesData": "Cn1c(=O)n([C@H]2CCCN(C(=O)CC#N)C2)c2nc(-c3cnn4ccccc34)ccc21", "unitDescriptor": "ng·h/mL", "quantitativeResult": 1160}

Provenance of the data: patent US20240261224A1
